The measured values listed here are drawn from patent US20230348603A1.

Kd overview
targetSystem: T1, Cynomolgus Monkey VSIG4-L-His (cynomolgus monkey)
T1 construct: ECD with His tag; also called cyVSIG4-L; cyno VSIG4-L-His
T1 chain: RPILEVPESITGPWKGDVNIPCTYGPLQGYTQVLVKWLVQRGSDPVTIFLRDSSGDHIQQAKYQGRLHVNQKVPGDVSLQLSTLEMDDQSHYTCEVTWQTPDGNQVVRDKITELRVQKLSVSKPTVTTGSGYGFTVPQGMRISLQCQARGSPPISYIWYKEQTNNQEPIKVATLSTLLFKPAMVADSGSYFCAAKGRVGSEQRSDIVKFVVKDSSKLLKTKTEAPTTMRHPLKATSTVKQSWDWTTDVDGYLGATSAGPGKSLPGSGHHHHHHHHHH
assayComment: BLI (Octet), mouse IgG on AMC sensor, antigen 100 nM;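 also: octet Red384 biolayer interferometry with immobilized mouse hybridoma antibodies, 300 s association then 300 s dissociation at 30 °C, isotype-control reference subtraction, 1:1 global fit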
Dear colleague, please return just the value in nM, with no unit written.

These recorded examples may help you get a feel for the data.
binder	resultUnit	Kd
5D2.C8 murine hybridoma antibody (antibody, V domains shown, murine IgG purified from hybridoma supernatant) VH: EVKLVESGGGLVKPGGSLKLSCAVSGFTFSNSAMSWVRQTPAKRLEWVAYISISGDNTYYPDSVKGRFTISRDNAKNTLYLQMSSLRSEDTAMYYCARRGYDYDGFTHWGQGTLVTVSA VL: DILLTQSPAILSVSPGERVSFSCRASQNIGTSIHWYQQRTNGSPRLLIKYASQSISGIPSRFSGSGSGTDFTLSINSVESEDIADYYCQQSYSWPLTFGTGTQLELK	nM	0.435
1C6.D6 murine hybridoma antibody (antibody, V domains shown, murine IgG purified from hybridoma supernatant; also called 1C6.D6b) VH: QVQLQQPGAEMVRPGTSVKLSCKASGYTFTSYWMHWVKQRPGQGLEWIGKIDPSHNKTHYIQKFEDKATLTVDKSSSTAYMHLNSLTSEDSAVYYCVTWDGDFLYWGQGTLVTVSA VL: NIVLTQSPASLTVSLGQRATISCRASESVDSYGNSFMHWYQQKPGQPPKLLIYITSNLQSGVPARFSGGGSRTDFTLTIDPVEADDAATYYCQQNNEDPWTFGGGTKLEIK	nM	1.13
16F6.E1 murine hybridoma antibody (antibody, V domains shown, murine IgG purified from hybridoma supernatant; also called 16F6.H6) VH: QVQLQQPGAEMVRPGASLKLSCKASGYTFTSYWMHWVKQRPGQGLEWIGKIDPSKNTTHYNQNFRDKATLTVDRSSSTAYMQLNSLTSEDSAVYFCVTWDGDFTYWGQGTLVTISA VL: NIVLTQSPPSLAVSLGQRATISCRASESVDSYGNSFMHWYQQKPGQPPKLLIYLASNLESGVPARFSGSGSRTDFTLTIDPVEADDAATYFCHQNNEDPWTFGGGTKLEIK	nM	0.802

[in] Provide only the value of recorded Kd for 14F8.H6 murine hybridoma antibody (antibody, V domains shown, murine IgG purified from hybridoma supernatant) VH: EVHLVESGGALVKPGGSLKLSCTASGFTFSNSVMSWIRQTPEKRLEWVATIGSGGTYIYYPDSVKGRFTISRDNSKNTLFLQMTSLRSEDTALYYCARHIYGYDVVDYWGQGTTLTVST VL: DIVMTQSHRFMSTSVGDRVSITCKASHDVSNVVAWYQQKPGQSPELLIYSASYRYTGVPARFTGSGSGTDFTFTISSVQAEDLAVYFCQQHFTTPLTFGAGTSLEVR
[out] 2.02

[in] Provide only the value of recorded Kd for 10E8.B6 murine hybridoma antibody (antibody, V domains shown, murine IgG purified from hybridoma supernatant) VH: EVQLQQSGPELMKPGDSVKMSCKASGYTFTDYYMDWVKQSHGKSLEWIGYIYPNIDFTTYNQKFKGKATLTVDKSSNTAYMELHSLTSEDSAVYYCTRRDLPLHGSAYYFDYWGQGTTLTVSS VL: DIVMSQSPSSLAVSAGEKVTMSCKSSQSLLNSRTRKNYLAWYQQKPGQSPKLLIYWASTRESGVPDRFTGSGSGTDFTLTISSVQAEDLAVYYCKQSYDLFTFGSGTKLEIK
[out] 1.56
